Data provenance: the supplement of paper PMC10567573

Known protein stability index of a selection of variants
B1: EPB41L3 (parent)
chain: FRFAPNHTKELEDKVIELHKSHRG

- Variants of: B1
- PROTOCOL: protein stability index of a GFP-peptide fusion (GPS, HEK-293T) (PSI 1-6); higher = more stable;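 further: lentivirally expressed fusions sorted by FACS into six bins by GFP to DsRed ratio, PSI derived from sequencing read proportions per bin multiplied by bin number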
- STUDY CONDITIONS: c terminus: a fixed tail appended
PARAMETER: protein stability index

variant_designation=T8P parameter="protein stability index" measured_value=1.75
variant_designation=F1S parameter="protein stability index" measured_value=4.58
variant_designation=N6S parameter="protein stability index" measured_value=2.17
variant_designation=P5R parameter="protein stability index" measured_value=2.15
variant_designation=G24M parameter="protein stability index" measured_value=2.53
variant_designation=R23C parameter="protein stability index" measured_value=2.4
variant_designation=H22C parameter="protein stability index" measured_value=1.95
variant_designation=V15Y parameter="protein stability index" measured_value=1.99
variant_designation=A4E parameter="protein stability index" measured_value=2.87
variant_designation=I16G parameter="protein stability index" measured_value=1.98
variant_designation=S21V parameter="protein stability index" measured_value=2.2
variant_designation=K9T parameter="protein stability index" measured_value=1.37
variant_designation=G24D parameter="protein stability index" measured_value=1.75
variant_designation=H22Q parameter="protein stability index" measured_value=2.01
variant_designation=L11D parameter="protein stability index" measured_value=2.53
variant_designation=K9N parameter="protein stability index" measured_value=2.39
variant_designation=F1G parameter="protein stability index" measured_value=3.6
variant_designation=I16Y parameter="protein stability index" measured_value=2.43
variant_designation=L11F parameter="protein stability index" measured_value=2.48
variant_designation=E12Q parameter="protein stability index" measured_value=2.09
variant_designation=T8N parameter="protein stability index" measured_value=2.17
variant_designation=I16H parameter="protein stability index" measured_value=2.09
variant_designation=S21K parameter="protein stability index" measured_value=1.74
variant_designation=K9C parameter="protein stability index" measured_value=2.44
variant_designation=I16N parameter="protein stability index" measured_value=2.42
variant_designation=E12W parameter="protein stability index" measured_value=2.97
variant_designation=K14H parameter="protein stability index" measured_value=2.74
variant_designation=K9L parameter="protein stability index" measured_value=1.47
variant_designation=K20T parameter="protein stability index" measured_value=2.12
variant_designation=S21T parameter="protein stability index" measured_value=2.47
variant_designation=D13G parameter="protein stability index" measured_value=3.4
variant_designation=P5Y parameter="protein stability index" measured_value=1.24
variant_designation=F1Y parameter="protein stability index" measured_value=3.73
variant_designation=G24L parameter="protein stability index" measured_value=2.02
variant_designation=P5V parameter="protein stability index" measured_value=2.37
variant_designation=V15C parameter="protein stability index" measured_value=2.24
